// MIC collected for E. coli 15597

Example compounds with recorded MIC:
CO/N=C(\C(=O)N[C@@H]1C(=O)N2C(C(=O)[O-])=C(C[N+]3(C)CCCC3)CS[C@H]12)c1csc(N)n1 [Cefepime]    8 µg/mL
C[C@@H](O)[C@H]1C(=O)N2C(C(=O)O)=C(S[C@@H]3CN[C@H](CNS(N)(=O)=O)C3)[C@H](C)[C@H]12    > 64 µg/mL
C[C@@H](O)[C@H]1C(=O)N2C(C(=O)O)=C(SCCN=CN)C[C@H]12    4 µg/mL

The record that follows has no MIC shown yet.
Request: Quote MIC with test system E. coli 15597 for C[C@@H](O)[C@H]1C(=O)N2C(C(=O)O)=C(S[C@@H]3CN[C@H](C(=O)N(C)C)C3)[C@H](C)[C@H]12
Result: > 64 µg/mL

* * *

system: E. coli BAA 2523; experiment: MIC by phage T7 amplification ELISA, serial microdilution in urine; conditions: Escherichia coli, BAA2523, 2 h
# Satisfied = MIC below 60 µg/mL (exclusive); Not satisfied = MIC at/above 60 µg/mL

CO/N=C(\C(=O)N[C@@H]1C(=O)N2C(C(=O)O)=C(CSc3nc(=O)c(=O)[nH]n3C)CS[C@H]12)c1csc(N)n1    Not satisfied
Cc1onc(-c2ccccc2)c1C(=O)N[C@@H]1C(=O)N2[C@@H]1SC(C)(C)[C@@H]2C(=O)O    Not satisfied
C[C@@H](O)[C@H]1C(=O)N2C(C(=O)O)=C(S[C@@H]3CN[C@H](C(=O)Nc4cccc(C(=O)O)c4)C3)[C@H](C)[C@H]12    Satisfied
C[C@@H](O)[C@H]1C(=O)N2C(C(=O)O)=C(SCCN=CN)C[C@H]12    Not satisfied
C[C@@H](O)[C@H]1C(=O)N2C(C(=O)O)=C(S[C@@H]3CN[C@H](CNS(N)(=O)=O)C3)[C@H](C)[C@H]12    Satisfied
CO/N=C(\C(=O)N[C@@H]1C(=O)N2C(C(=O)[O-])=C(C[N+]3(C)CCCC3)CS[C@H]12)c1csc(N)n1 [Cefepime]    Satisfied

Request: Would you kindly verify if MIC of CC(C)(O/N=C(\C(=O)N[C@@H]1C(=O)N2C(C(=O)[O-])=C(C[n+]3ccccc3)CS[C@H]12)c1csc(N)n1)C(=O)O is strictly less than 60 µg/mL?
Result: Not satisfied

Request: State whether 60 µg/mL exceeds MIC recorded for C[C@@H](O)[C@H]1C(=O)N2C(C(=O)O)=C(S[C@@H]3CN[C@H](C(=O)N(C)C)C3)[C@H](C)[C@H]12 .
Result: Satisfied

* * *

Here the recorded MIC is given for each entry.
test system: E. coli BAA 2471

C[C@@H](O)[C@H]1C(=O)N2C(C(=O)O)=C(S[C@@H]3CN[C@H](C(=O)N(C)C)C3)[C@H](C)[C@H]12    16 µg/mL

Let us examine a further case.
Request: Enter recorded MIC with E. coli BAA 2471 for CO/N=C(\C(=O)N[C@@H]1C(=O)N2C(C(=O)O)=C(CSc3nc(=O)c(=O)[nH]n3C)CS[C@H]12)c1csc(N)n1 here.
Result: > 256 µg/mL

* * *

test system: E. coli 15597
assay.endpoint: MIC (µg/mL)
Number only, in µg/mL; omit the unit.

Request: Give reported MIC for CC(C)(O/N=C(\C(=O)N[C@@H]1C(=O)N2C(C(=O)[O-])=C(C[n+]3ccccc3)CS[C@H]12)c1csc(N)n1)C(=O)O [Ceftazidime] (E. coli 15597)
Result: 0.5

Request: Report MIC on E. coli 15597 for this entry: CO/N=C(\C(=O)N[C@@H]1C(=O)N2C(C(=O)O)=C(CSc3nc(=O)c(=O)[nH]n3C)CS[C@H]12)c1csc(N)n1 [Ceftriaxone]
Result: 8

Request: Answer briefly: MIC recorded on E. coli 15597 for C[C@@H](O)[C@H]1C(=O)N2C(C(=O)O)=C(S[C@@H]3CN[C@H](C(=O)Nc4cccc(C(=O)O)c4)C3)[C@H](C)[C@H]12 [Ertapenem]
Result: 0.5

Request: Under E. coli 15597, report MIC for Cc1onc(-c2ccccc2)c1C(=O)N[C@@H]1C(=O)N2[C@@H]1SC(C)(C)[C@@H]2C(=O)O [Oxacillin]
Result: 64
